System: H1755 cells
experimental_protocol: Cellular phospho-ERK inhibition assay in H1755 cells
Type: cell-based
test_settings: Homo sapiens, NCI-H1755, 2 hours treatment, read-out: H1755 Cell IC50
pIC50: −log10 of the molar value. Where a name gives a salt, the structure may show the parent alone.
parameter: pIC50

C=Cc1c(Nc2c(F)ccc(NS(=O)(=O)N3CCCC3)c2Cl)ccc2ncn(C)c(=O)c12 [Example 51, trifluoroacetate]
6.56
Cc1c(Nc2c(F)c(F)cc(NS(=O)(=O)N3CC4CC3C4)c2Cl)ccc2ncn(C)c(=O)c12
6.36
Cc1c(Nc2cc(F)cc(NS(=O)(=O)N3CCCC3)c2F)ccc2ncn(C)c(=O)c12
6.06
Cc1c(Nc2cc(F)cc(NS(=O)(=O)N3CCCC3)c2Cl)ccc2ncn(C)c(=O)c12
6.26
Cc1c(Nc2c(F)c(F)cc(NS(=O)(=O)N3C[C@@H](F)[C@@H](F)C3)c2Cl)ccc2ncn(C)c(=O)c12
6.10
Cn1cnc2ccc(Oc3c(F)ccc(NS(=O)(=O)N4CC5CC5C4)c3Cl)c(F)c2c1=O (stereo not drawn)
6.90
Cn1cnc2ccc(Nc3c(F)ccc(NS(=O)(=O)N4CCCC4)c3Cl)c(Cl)c2c1=O [Example 12, trifluoroacetate]
7.01
Cn1cnc2ccc(Nc3c(F)ccc(NS(=O)(=O)N4CC5CC5C4)c3Cl)c(F)c2c1=O (stereo not drawn) [Example 30, trifluoroacetate]
7.38
CCc1c(Nc2c(F)ccc(NS(=O)(=O)N3CCCC3)c2Cl)ccc2ncn(C)c(=O)c12 [Example 52, trifluoroacetate]
6.07
